# pKi listing for each entry below
biological target: Glutamate receptor ionotropic, kainate 1 (Rattus norvegicus, UniProt P22756); experiment: Displacement of [3H]SYM2081 from rat recombinant iGluR5-1b expressed in baculovirus-infected insect Sf9 cells
Sequence (P22756 whole entry): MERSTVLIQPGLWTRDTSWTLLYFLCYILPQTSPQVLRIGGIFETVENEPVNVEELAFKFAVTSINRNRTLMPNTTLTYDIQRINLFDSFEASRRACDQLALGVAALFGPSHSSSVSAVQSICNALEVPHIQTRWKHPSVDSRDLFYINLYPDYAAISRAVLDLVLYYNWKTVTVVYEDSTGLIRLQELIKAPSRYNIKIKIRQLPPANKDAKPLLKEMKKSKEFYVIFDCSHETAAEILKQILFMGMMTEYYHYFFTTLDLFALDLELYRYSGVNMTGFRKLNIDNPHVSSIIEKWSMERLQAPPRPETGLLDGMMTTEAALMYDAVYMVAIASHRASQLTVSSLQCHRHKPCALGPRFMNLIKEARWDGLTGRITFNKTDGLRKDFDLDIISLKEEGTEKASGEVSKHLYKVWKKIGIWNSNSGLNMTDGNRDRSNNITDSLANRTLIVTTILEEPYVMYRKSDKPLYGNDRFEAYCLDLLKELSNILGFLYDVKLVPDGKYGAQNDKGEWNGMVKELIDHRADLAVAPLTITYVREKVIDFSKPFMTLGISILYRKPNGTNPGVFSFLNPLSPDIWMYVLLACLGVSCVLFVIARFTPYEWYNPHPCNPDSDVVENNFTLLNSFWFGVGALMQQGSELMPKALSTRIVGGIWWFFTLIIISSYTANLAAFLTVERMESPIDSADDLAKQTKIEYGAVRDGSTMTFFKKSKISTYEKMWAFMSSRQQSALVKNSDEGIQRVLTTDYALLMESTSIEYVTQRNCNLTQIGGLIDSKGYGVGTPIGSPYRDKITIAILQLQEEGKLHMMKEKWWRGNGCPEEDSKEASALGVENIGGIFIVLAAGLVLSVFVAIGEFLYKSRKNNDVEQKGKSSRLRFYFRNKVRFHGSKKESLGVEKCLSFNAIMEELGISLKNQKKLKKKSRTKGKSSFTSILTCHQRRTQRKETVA
pKi: −log10 of the molar value.

In the examples that follow, each entry is paired with its recorded pKi.
Measured pKi of NC(Cc1cc(Cl)c(Cl)c(-c2cccc([N+](=O)[O-])c2)c1)C(=O)O (racemic) : < 4.00

Measured pKi of NC(Cc1cc(Cl)c(Cl)c(-c2ccc(O)cc2)c1)C(=O)O (racemic) : < 4.00

Measured pKi of NC(Cc1cc(Cl)c(Cl)c(-c2ccccc2O)c1)C(=O)O (racemic) : < 4.00

Measured pKi of NC(Cc1cc(Cl)c(Cl)c(-c2ccccc2C(=O)O)c1)C(=O)O (racemic) : < 4.00

Measured pKi of NC(Cc1cccc(-c2ccc(CC(=O)O)cc2)c1)C(=O)O (stereo not given) : < 4.00

Measured pKi of NC(Cc1cccc(Cc2cccc(C(=O)O)c2)c1)C(=O)O (racemic) : 4.30

Measured pKi of NC(Cc1cccc(Cc2ccc(C(=O)O)cc2)c1)C(=O)O (racemic) : ≤ 4.00

Measured pKi of NC(Cc1cc(Cl)c(Cl)c(-c2ccccc2-c2nnn[nH]2)c1)C(=O)O (racemic) : < 4.00

***
Measured pKi of N[C@H](Cc1cccc(-c2cccc(C(=O)O)c2)c1)C(=O)O : < 3.00

Measured pKi of NC(Cc1cccc(-c2ccc(C(=O)O)cc2)c1)C(=O)O (racemic) : < 4.00

###

# Ki listing for each entry below
molecular target: Glutamate receptor ionotropic, kainate 1 (Rattus norvegicus, UniProt P22756); test: Displacement of [3H]SYM2081 from rat recombinant iGluR5-1b expressed in baculovirus-infected insect Sf9 cells

In the examples that follow, each entry is paired with its recorded Ki.
Field Ki (system: Glutamate receptor ionotropic, kainate 1 (Rattus norvegicus, UniProt P22756)) for entry NC(Cc1cc(Cl)c(Cl)c(-c2ccc(C(=O)O)s2)c1)C(=O)O (racemic) = ≥ 100 µM

Field Ki (system: Glutamate receptor ionotropic, kainate 1 (Rattus norvegicus, UniProt P22756)) for entry NC(Cc1cccc(-c2cccc(C(=O)O)c2)c1)C(=O)O (racemic) = 7.9 µM

Field Ki (system: Glutamate receptor ionotropic, kainate 1 (Rattus norvegicus, UniProt P22756)) for entry CC(C)(C)c1onc(OCP(=O)(O)O)c1C[C@H](N)C(=O)O = 2.9 µM

Field Ki (system: Glutamate receptor ionotropic, kainate 1 (Rattus norvegicus, UniProt P22756)) for entry NC(Cc1cccc(-c2cccc(CC(=O)O)c2)c1)C(=O)O (racemic) = ≥ 100 µM

Field Ki (system: Glutamate receptor ionotropic, kainate 1 (Rattus norvegicus, UniProt P22756)) for entry NC(Cc1cc(Cl)c(Cl)c(-c2ccc(C(=O)O)cc2)c1)C(=O)O (racemic) = > 100 µM

***
Field Ki (system: Glutamate receptor ionotropic, kainate 1 (Rattus norvegicus, UniProt P22756)) for entry NC(Cc1cc(Cl)c(Cl)c(-c2ccc(-c3nnn[nH]3)cc2)c1)C(=O)O (racemic) = > 100 µM

Field Ki (system: Glutamate receptor ionotropic, kainate 1 (Rattus norvegicus, UniProt P22756)) for entry NC(Cc1cc(Cl)c(Cl)c(-c2cccc(O)c2)c1)C(=O)O (racemic) = > 100 µM

Field Ki (system: Glutamate receptor ionotropic, kainate 1 (Rattus norvegicus, UniProt P22756)) for entry NC(Cc1cc(Cl)c(Cl)c(-c2cccc(-c3nnn[nH]3)c2)c1)C(=O)O (racemic) = ≥ 100 µM

Field Ki (system: Glutamate receptor ionotropic, kainate 1 (Rattus norvegicus, UniProt P22756)) for entry NC(Cc1cc(Cl)c(Cl)c(-c2cccc(C(=O)O)c2)c1)C(=O)O (racemic) = 2.8 µM
